Exercise: state measured aptamer binding inhibition for each of the compounds provided.
biological target: Beta-adrenergic receptor kinase 1 (Homo sapiens); assay: GRK2 binders displacing RNA aptamer, biochemical, validation, human GRK2, bead flow cytometry (AID 488806); conditions: bead-bound GRK2, FAM-aptamer displacement, at 10 µM, active compounds read high
Answer format: numeric, % implied, no suffix.

Tell me the measured aptamer binding inhibition of COc1ccc(CCN(C)CCCC(C#N)(c2cc(OC)c(OC)c(OC)c2)C(C)C)cc1OC (configuration not stated) , please. 1

How about this compound: CC1Cc2ccccc2N1NC(=O)c1ccc(Cl)c(S(N)(=O)=O)c1 (configuration not stated) 1

How about this compound: COc1ccc(N2C(=O)C3C(C2=O)C(C(=O)c2ccccc2)N2CCCC32)cc1 (configuration not stated) 5

How about this compound: "CN(C)C(=O)CCCCCCCCC(=O)N(C)C" 5

How about this compound: O=C1CC(c2ccc(O)cc2)Oc2cc(O)cc(O)c21 (configuration not stated) 1

How about this compound: "COc1ccc2cc([C@H](C)C(=O)O)ccc2c1" 5

How about this compound: "CCc1oc2ccccc2c1C(=O)c1cc(Br)c(O)c(Br)c1" 4

How about this compound: COc1ccc2[nH]c(CN3CCN(CC(C)C)C(CCO)C3)c(C)c2c1 (configuration not stated) 3

How about this compound: CN(C)c1ccc(CNCCC(Cc2ccccc2)c2ccco2)cc1 (configuration not stated) -4

How about this compound: "O=C(CCCN1C(=O)/C(=C\c2cccc(Br)c2)SC1=S)Nc1cccnc1" 2

How about this compound: CCN1CCn2c3c(c4cc(Cl)ccc42)CCCC31 (configuration not stated) 5

How about this compound: COCCOC(=O)C1=C(N)OC2=C(C(=O)CCC2)C1c1cccnc1 (configuration not stated) 2

How about this compound: "COc1ccc2oc(C)c(C(N)=O)c2c1" 4

How about this compound: CCCCCCCC(=O)OCC(O)CO (configuration not stated) 3

How about this compound: CC(C)COCC1CC2(CC(C)(c3csc(N)n3)OC2=O)C(=O)O1 (configuration not stated) 5

How about this compound: "CCCc1c(OCCCCc2nn[nH]n2)ccc(C(C)=O)c1O" -5

How about this compound: O=C(c1cccc2ccccc12)C1CCCN(C(=O)CCN2CCCO2)C1 (configuration not stated) 0

How about this compound: "CC(/C=C1\SC(=O)N(CCCC(=O)O)C1=O)=C\c1ccccc1" 2

How about this compound: "CCN(CCCCCN(C)C)Cc1cc2ccccc2o1" -1

How about this compound: "Cn1c([N+](=O)[O-])cnc1COC(N)=O" 4

How about this compound: "CCOC(=O)c1cccc(P(C)(C)=O)c1" 3

How about this compound: CC(C)=CC/C=C1\CCC(C(=O)O)C(C(=O)O)C1 (configuration not stated) 6

How about this compound: "CCOc1ncnc2c1[nH]c1ccccc12" 4

How about this compound: "COc1ccc(C(=O)Nc2cccc3cccnc23)cc1OC" -4

How about this compound: CSCCC(NC(C)=O)C(=O)Oc1ccc2c3c(c(=O)oc2c1)CCCC3 (configuration not stated) 4

How about this compound: "O=C(Nc1ccc(Cl)cn1)Nc1ccccc1Cl" 2

How about this compound: "COC(=O)c1ccc(-c2ncc(-c3cccc4ccccc34)o2)cc1" -1

How about this compound: "CC(=O)[C@@]1(O)CC[C@H]2[C@@H]3CCC4=CC(=O)CC[C@]4(C)[C@H]3[C@@H](O)C[C@@]21C" 1

How about this compound: COc1ccc2nc(S(=O)Cc3ncc(C)c(OC)c3C)[nH]c2c1 (configuration not stated) 2

How about this compound: "OCCN(Cc1nc(-c2ccc3c(c2)OCO3)no1)Cc1cccs1" 1

How about this compound: "COc1ccc(CC(=O)NCC2(c3ccc(OC)c(OC)c3)CCOCC2)cc1" 8

How about this compound: "CC(=O)N(C(C)=O)c1nc2nc(C)cc(C)n2n1" 6

How about this compound: "Nc1ccc(-c2nc3ncccc3o2)c(Cl)c1" 0

How about this compound: "N#CCC(N)=C(C#N)C#N" 9

How about this compound: CC1(C)CC(c2csc(N)n2)CCO1 (configuration not stated) 3

How about this compound: "COc1ccc(S(N)(=O)=O)cc1C(N)=O" 0

How about this compound: O=C(NCCC(c1ccccc1)c1ccco1)c1cccs1 (configuration not stated) 0

How about this compound: CC(=O)C1=C(Nc2ccc(C)cc2)CC(C)(O)C(C(C)=O)C1c1ccco1 (configuration not stated) 5

How about this compound: "CSCC[C@H](NC(=O)Nc1ccc(C)cc1C)C(=O)O" 6

How about this compound: "CCOC(=O)[C@H]1O[C@@H]1C(=O)N[C@@H](CC(C)C)C(=O)NCCC(C)C" 3

How about this compound: "Cc1ccc(Cl)c(Nc2ccccc2C(=O)O)c1Cl" 2

How about this compound: "CC(=O)Nc1ccc2[nH]c(C)c(CC=C(Cl)Cl)c(=O)c2c1" 4

How about this compound: "Cc1cnc(N)c2c(=O)oc3ccccc3c12" 4

How about this compound: O=C(O)C1[C@H]2C(=O)N(C3CCCC3)C[C@]23C=C[C@H]1O3 (some centres not stated) -2

How about this compound: "O=C(COc1cc(O)c2c(=O)c3ccccc3oc2c1)OCc1ccccc1" -2

How about this compound: CCOC(=O)C1(Cc2cccc(Cl)c2)CCCN(C2CCN(C(C)=O)CC2)C1 (configuration not stated) -3

How about this compound: "C[C@H](NC(=O)C1(c2ccccc2)CCN(C(=O)[C@H]2CSCN2C(=O)OC(C)(C)C)CC1)C(=O)O" 6
